The origin of these recorded values is patent US20140066488A1.

- TARGET OR TEST SYSTEM: UniProt P07339
- Sequence (P07339 65-412): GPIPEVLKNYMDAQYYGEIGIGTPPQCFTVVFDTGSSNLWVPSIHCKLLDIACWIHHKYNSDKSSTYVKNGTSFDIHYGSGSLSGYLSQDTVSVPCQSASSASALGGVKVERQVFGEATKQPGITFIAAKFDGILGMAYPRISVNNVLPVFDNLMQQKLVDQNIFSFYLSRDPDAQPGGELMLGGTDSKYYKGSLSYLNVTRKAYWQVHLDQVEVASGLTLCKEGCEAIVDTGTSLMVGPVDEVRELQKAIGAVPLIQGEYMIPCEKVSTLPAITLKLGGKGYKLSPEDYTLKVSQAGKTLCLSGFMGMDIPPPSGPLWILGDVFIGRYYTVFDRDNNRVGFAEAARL
- PROTOCOL NOTES: enzyme inhibition of human cathepsin D (CD)
- Assay type: biochemical
- EXPERIMENTAL SETUP: ratio of Ki values
MEASURED ENDPOINT: selectivity CD/BACE 1

QUERY: Quote selectivity CD/BACE 1 reported for CCC[C@H](O)[C@H](NC[C@H](Cc1ccccc1)NC(=O)c1cc2c3c(c1)c(CC)cn3CC1(CC1)S(=O)(=O)N2C)C(=O)NCC(C)C please.
RESULT: >4200

QUERY: Output measured selectivity CD/BACE 1 for this item: CCc1cn2c3c(cc(C(=O)N[C@H](CN[C@H](C(=O)NCC(C)C)[C@H](C)O)Cc4ccccc4)cc13)N(C)S(=O)(=O)CC2
RESULT: >970

QUERY: Please look at this molecule and report its selectivity CD/BACE 1: CC[C@H](NC[C@H](Cc1ccccc1)NC(=O)c1cc(C(=O)N[C@H](C)c2ccccc2)cc(N(C)S(C)(=O)=O)c1)C(=O)NCC(C)C
RESULT: >300

QUERY: Give recorded selectivity CD/BACE 1. CCC[C@H](O)[C@H](NC[C@H](Cc1ccccc1)NC(=O)c1cc2c3c(c1)c(CC)cn3CC(C)(C)S(=O)(=O)N2C)C(=O)NCC(C)C
RESULT: >14700

QUERY: Report selectivity CD/BACE 1 for CCC[C@H](O)[C@H](NC[C@H](Cc1ccccc1)NC(=O)c1cc2c3c(c1)c(CC)cn3CCS(=O)(=O)N2C)C(=O)NCC(C)C
RESULT: >1700

----------
- TARGET OR TEST SYSTEM: recombinant β-secretase (BACE 1, memapsin 2) (Homo sapiens, UniProt P56817)
- PROTOCOL NOTES: BACE 1 enzyme inhibitory assay against recombinant β-secretase
MEASURED ENDPOINT: Ki (nM)
Output spec: scalar in nM, unitless text.

QUERY: Read off the recorded Ki for CCC[C@H](O)[C@H](NC[C@H](Cc1ccccc1)NC(=O)c1cc2c3c(c1)c(CC)cn3CC1(CC1)S(=O)(=O)N2C)C(=O)NCC(C)C
RESULT: 0.47

----------
- TARGET OR TEST SYSTEM: β-secretase in neuroblastoma cells (Homo sapiens)
- Sequence (P56817 46-501): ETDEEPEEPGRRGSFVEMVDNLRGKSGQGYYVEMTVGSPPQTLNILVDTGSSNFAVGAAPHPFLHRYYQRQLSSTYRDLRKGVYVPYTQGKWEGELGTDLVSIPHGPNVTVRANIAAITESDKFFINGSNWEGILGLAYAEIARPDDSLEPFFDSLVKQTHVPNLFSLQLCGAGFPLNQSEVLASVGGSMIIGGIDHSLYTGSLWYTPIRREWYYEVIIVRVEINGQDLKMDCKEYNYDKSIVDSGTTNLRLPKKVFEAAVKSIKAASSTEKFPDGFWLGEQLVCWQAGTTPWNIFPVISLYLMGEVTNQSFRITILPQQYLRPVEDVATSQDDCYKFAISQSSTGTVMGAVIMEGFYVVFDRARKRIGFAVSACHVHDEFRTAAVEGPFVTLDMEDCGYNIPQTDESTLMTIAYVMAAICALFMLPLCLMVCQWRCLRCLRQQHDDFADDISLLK
- EXPERIMENTAL SETUP: read-out: IC50 (nM), cellular; determined in neuroblastoma cells
MEASURED ENDPOINT: IC50 (nM)

QUERY: Fetch value of IC50 on β-secretase in neuroblastoma cells (Homo sapiens) for CCc1cn2c3c(cc(C(=O)N[C@H](CN[C@H](C(=O)NCC(C)C)[C@H](C)O)Cc4ccccc4)cc13)N(C)S(=O)(=O)CC2 .
RESULT: 22

a: CCC[C@H](O)[C@H](NC[C@H](Cc1ccccc1)NC(=O)c1cc2c3c(c1)c(CC)cn3CC(C)(C)S(=O)(=O)N2C)C(=O)NCC(C)C
b: CC[C@H](NC[C@H](Cc1ccccc1)NC(=O)c1cc(C(=O)N[C@H](C)c2ccccc2)cc(N(C)S(C)(=O)=O)c1)C(=O)NCC(C)C
QUERY: Between a and b , which one shows the smaller IC50 number? Return value: the label identifying the chosen record.
RESULT: b
